These data points were gathered from ChEMBL document CHEMBL4732113.

# Test system: Human immunodeficiency virus 1
# measurement_protocol: Antiviral activity against HIV1 RES056 harboring K103N/Y181C double mutant infected in human MT4 cells assessed as reduction in virus-induced cytopathic effect by MTT assay
# Assay type: functional, organism-based
# measurement_setup: Human immunodeficiency virus 1, RES056, MT4; read-out: EC50
pEC50: −log10 of the molar value.
# Lookup of reported pEC50 keyed by entry
recorded_metric: pEC50

{"columns": ["smiles_representation", "target_entity", "result"],
 "data": [
  ["Cc1cc(C#N)cc(C)c1Oc1ccnc(Nc2ccc(CN3CCN(S(=O)(=O)C(C)C)CC3)cc2)n1", "Human immunodeficiency virus 1", "< 5.34"],
  ["Cc1cc(C#N)cc(C)c1Oc1ccnc(Nc2ccc(CN3CCS(=O)(=O)CC3)cc2)n1", "Human immunodeficiency virus 1", "< 4.27"],
  ["CCS(=O)(=O)N1CCN(Cc2ccc(Nc3nccc(Oc4c(C)cc(C#N)cc4C)n3)cc2)CC1", "Human immunodeficiency virus 1", "< 5.28"]
]}

====

# System: Human immunodeficiency virus 1
# measurement_protocol: Antiviral activity against HIV1 3B infected in human MT4 cells assessed as reduction in virus-induced cytopathic effect by MTT assay
# Format: functional, organism-based
# measurement_setup: Human immunodeficiency virus 1, 3B, read-out: EC50
pEC50: −log10 of the molar value.
Tick T if pEC50 is 8 or greater. Tick F if pEC50 is less than 8.

{"columns": ["smiles_representation", "target_entity", "group_label"],
 "data": [
  ["Cc1cc(C#N)cc(C)c1Oc1ccnc(Nc2ccc(CN3CCN(S(=O)(=O)C4CC4)CC3)cc2)n1", "Human immunodeficiency virus 1", "F"],
  ["Cc1cc(/C=C/C#N)cc(C)c1Oc1ccnc(Nc2ccc(CN3CCN(S(=O)(=O)C(C)C)CC3)cc2)n1", "Human immunodeficiency virus 1", "T"],
  ["C=CC(=O)N1CCN(Cc2ccc(Nc3nccc(Oc4c(C)cc(/C=C/C#N)cc4C)n3)cc2)CC1", "Human immunodeficiency virus 1", "T"],
  ["Cc1ccnc2c1NC(=O)c1cccnc1N2C1CC1", "Human immunodeficiency virus 1", "F"],
  ["Cc1cc(/C=C/C#N)cc(C)c1Oc1ccnc(Nc2ccc(CN3CCN(S(=O)(=O)N(C)C)CC3)cc2)n1", "Human immunodeficiency virus 1", "T"]
]}
